Tested system: BDBV GP on rVSV particles (Bundibugyo virus (BDBV))
Experiment summary: cell-based or functional assay
Property label: IC50, half-maximal neutralization of viral infectivity (rVSV-GP) (nM)

>>> recorded_result("PE-87 Y107A (antibody, V domains shown) VH: QVQLVQSGVTLVQPGGSLRVSCAASGFTFSSYAMSWVRQAPGKGLEWVSAISGLGGSTYYADSVKGRFTISRDNSKNTLYLQMNSLRAEDTAVYYCAKDHRVWAAGAHFDYWGQGALVTVSS VL: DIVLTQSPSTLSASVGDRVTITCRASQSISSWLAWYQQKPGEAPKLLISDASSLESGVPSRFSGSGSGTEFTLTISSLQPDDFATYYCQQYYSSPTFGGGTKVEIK")
0.8
>>> recorded_result("PE-87 Y111A (antibody, V domains shown) VH: QVQLVQSGVTLVQPGGSLRVSCAASGFTFSSYAMSWVRQAPGKGLEWVSAISGLGGSTYYADSVKGRFTISRDNSKNTLYLQMNSLRAEDTAVYYCAKDHRVWAAGYHFDAWGQGALVTVSS VL: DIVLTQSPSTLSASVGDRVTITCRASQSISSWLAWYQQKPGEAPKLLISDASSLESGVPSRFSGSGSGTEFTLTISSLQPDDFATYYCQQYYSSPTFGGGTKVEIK")
0.4
>>> recorded_result("PE-87 H100A (antibody, V domains shown) VH: QVQLVQSGVTLVQPGGSLRVSCAASGFTFSSYAMSWVRQAPGKGLEWVSAISGLGGSTYYADSVKGRFTISRDNSKNTLYLQMNSLRAEDTAVYYCAKDARVWAAGYHFDYWGQGALVTVSS VL: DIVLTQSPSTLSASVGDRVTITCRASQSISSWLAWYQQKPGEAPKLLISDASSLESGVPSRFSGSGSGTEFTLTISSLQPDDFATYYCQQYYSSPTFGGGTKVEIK")
0.4
>>> recorded_result("PE-87 H108A (antibody, V domains shown) VH: QVQLVQSGVTLVQPGGSLRVSCAASGFTFSSYAMSWVRQAPGKGLEWVSAISGLGGSTYYADSVKGRFTISRDNSKNTLYLQMNSLRAEDTAVYYCAKDHRVWAAGYAFDYWGQGALVTVSS VL: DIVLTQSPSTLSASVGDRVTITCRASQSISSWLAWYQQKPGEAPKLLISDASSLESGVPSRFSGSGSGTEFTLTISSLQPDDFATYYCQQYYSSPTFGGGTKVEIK")
0.6
>>> recorded_result("PE-87 V102A (antibody, V domains shown) VH: QVQLVQSGVTLVQPGGSLRVSCAASGFTFSSYAMSWVRQAPGKGLEWVSAISGLGGSTYYADSVKGRFTISRDNSKNTLYLQMNSLRAEDTAVYYCAKDHRAWAAGYHFDYWGQGALVTVSS VL: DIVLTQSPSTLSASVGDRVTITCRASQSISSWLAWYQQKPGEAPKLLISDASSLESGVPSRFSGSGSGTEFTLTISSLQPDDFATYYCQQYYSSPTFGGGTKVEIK")
0.2
>>> recorded_result("PE-87 F109A (antibody, V domains shown) VH: QVQLVQSGVTLVQPGGSLRVSCAASGFTFSSYAMSWVRQAPGKGLEWVSAISGLGGSTYYADSVKGRFTISRDNSKNTLYLQMNSLRAEDTAVYYCAKDHRVWAAGYHADYWGQGALVTVSS VL: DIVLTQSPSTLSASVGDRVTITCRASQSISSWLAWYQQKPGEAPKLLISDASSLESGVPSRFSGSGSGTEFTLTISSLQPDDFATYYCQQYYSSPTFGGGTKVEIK")
0.3
>>> recorded_result("PE-87 G106A (antibody, V domains shown) VH: QVQLVQSGVTLVQPGGSLRVSCAASGFTFSSYAMSWVRQAPGKGLEWVSAISGLGGSTYYADSVKGRFTISRDNSKNTLYLQMNSLRAEDTAVYYCAKDHRVWAAAYHFDYWGQGALVTVSS VL: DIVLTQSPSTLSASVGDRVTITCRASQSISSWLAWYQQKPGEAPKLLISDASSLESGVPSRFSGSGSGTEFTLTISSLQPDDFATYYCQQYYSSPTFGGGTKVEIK")
0.4
>>> recorded_result("PE-87 R101A (antibody, V domains shown) VH: QVQLVQSGVTLVQPGGSLRVSCAASGFTFSSYAMSWVRQAPGKGLEWVSAISGLGGSTYYADSVKGRFTISRDNSKNTLYLQMNSLRAEDTAVYYCAKDHAVWAAGYHFDYWGQGALVTVSS VL: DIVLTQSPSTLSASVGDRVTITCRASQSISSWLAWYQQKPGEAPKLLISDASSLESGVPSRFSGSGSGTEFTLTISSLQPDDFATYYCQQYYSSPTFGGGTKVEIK")
0.4
>>> recorded_result("PE-87 D110A (antibody, V domains shown) VH: QVQLVQSGVTLVQPGGSLRVSCAASGFTFSSYAMSWVRQAPGKGLEWVSAISGLGGSTYYADSVKGRFTISRDNSKNTLYLQMNSLRAEDTAVYYCAKDHRVWAAGYHFAYWGQGALVTVSS VL: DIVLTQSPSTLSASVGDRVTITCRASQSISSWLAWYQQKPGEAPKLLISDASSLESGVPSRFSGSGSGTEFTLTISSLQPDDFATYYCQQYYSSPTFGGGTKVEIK")
0.9
